Tested on: PPARg:RXRa IVT, anti-PPARg (NR concentration 270 nM, RXRa partner concentration 90 nM)
Experiment: PBM binding z-score (relative to random genomic background probes); higher = stronger binding; sequences stand for … in GC…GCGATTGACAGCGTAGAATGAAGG
PBM binding z-score listing for selected sequences.

primary.sequence | PBM binding z-score
ATCGAAACGTCGAAGGTGAGTATACCCACCCGAA | -0.0186
ACTCGGAGGACAAAGGTCAGAGTTACGCCAGTGA | 3.34
TCATATAGGTAAAAGGTGAGAGTCGGTGTGGTAA | 4.91
CCTACTGGGCCATTCAGAGGTCATTAATCATATG | 4.37
ACTAGCAGGCCAAGTTTGGGCCACTCAAACAAAG | 0.241
CGAACTAGGTCATTGACAGGATAGTGAATAGTAA | 8.1
CCTTACGGGTCACTGACAGGTTATAGGATTTGGA | 3.81
CTCGAAAGGTTGGTTGAGGTGAGTATACGGATAA | 0.667
TTACCAGGGTGAAGGTCGTTGATCCCTCTGTAGA | 3.97
TAGCCTAGGTCAGGGGCCAGTATACCACGCGAAC | 2.32
ACTAGCAGGCCAAGGGCCACTCAAGATTAGTCCG | 0.822
CCCCGGAGGACAACAGGAGGTCAGAGCTGCCAGA | 0.373

---

System: LXRb homodimer (NR concentration 270 nM)
Assay: PBM binding z-score (relative to random genomic background probes); higher = stronger binding; sequences stand for … in GC…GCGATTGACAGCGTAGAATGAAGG
Recorded PBM binding z-score, one value per entry.

primary.sequence | target.under.test | PBM binding z-score
CCGAATGGGGCAAAGGTTACCATACTCAGTACGA | LXRb homodimer (NR concentration 270 nM) | -0.456
CGAAGTAGGTCATTGACAGGACAGTGAATAGTAA | LXRb homodimer (NR concentration 270 nM) | 0.392
CATACAGGGTCAGCTAGCCCAGAGTAGGGACGGC | LXRb homodimer (NR concentration 270 nM) | 0.0889
TCTTGTAGATCAATAGAGGATAAGAAAGTGCGCT | LXRb homodimer (NR concentration 270 nM) | -0.142
CCTCACGGGTCAAGGTTATAGCACGGGTGGTACG | LXRb homodimer (NR concentration 270 nM) | -0.33
TCGACTAGGTTAGGGGCATTCAGAATGGCGTCGA | LXRb homodimer (NR concentration 270 nM) | -0.322
ACTAGCAGGCCAAGTTTGGGGCACTCAAACAAAG | LXRb homodimer (NR concentration 270 nM) | -1.03
CCACGGAGGACAGAAGGTCAGAGCTGTCCGCTTT | LXRb homodimer (NR concentration 270 nM) | -0.786
ATACCAACGTGATCGTGAGGTCGTTGATACTAAC | LXRb homodimer (NR concentration 270 nM) | -0.123
CCTCGGAGGACAGAAGGTAAGAGCTGTCCGCTTT | LXRb homodimer (NR concentration 270 nM) | -1.17
AGTCAAAGTTCACTAGGTAATGTAAGATTCAGCT | LXRb homodimer (NR concentration 270 nM) | 0.939
TCTATAAGTTGAAGGGCAACCGACGAGTCCGTTT | LXRb homodimer (NR concentration 270 nM) | 0.00788

---

Tested on: RXRa DBDmut IVT, anti-RXR (DBD mutation: RXRa K156A/R161A, NR concentration 90 nM)
Assay: PBM binding z-score (relative to random genomic background probes); higher = stronger binding; sequences stand for … in GC…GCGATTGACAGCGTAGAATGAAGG

primary.sequence | PBM binding z-score
ATCTCTAGGTAACAAGTTCAGTGCAAGAGAGGAC | 0.886
ACTTACGGGTCAACGAGGTTATAGAACGCGTATA | 2.56
TCTCGGAGGACACGAAGGTCGGAGCTTTCCAGAG | 0.608
TCGAGTAGGTTAGGGTCATTCAGAATGGCGTCGA | 2.11
CCTGCTAGGTCAATGGTGAGCTAAAGCAGCTCGC | 1.62
GCATATAGGTAATACAAGGTGAAATTCCGATTGT | 0.228
CCTATTTGTTGACCATAAGGGCAACCGAAGCTCG | 0.849
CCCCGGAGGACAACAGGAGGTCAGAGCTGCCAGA | -0.883
CTCGAAAGGTCGGTTAAGGTGAGTATACGGATAA | 0.811
TATACAGCGTCAAAGGCCAGAGTACGAATGTCGA | -1.06
AAGACAGGGTCACTAGGCCAGAGTAGGTACGAAT | 2.26
TCTTGTAGATTAAGCAGGTTAAGAAAGCCTGAGT | 0.673

---

Parameter: PBM binding z-score. Scope: all listed entries.
System: THRa:RXRa (NR concentration 90 nM, RXRa partner concentration 90 nM)
Assay: PBM binding z-score (relative to random genomic background probes); higher = stronger binding; sequences stand for … in GC…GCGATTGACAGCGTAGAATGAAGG

primary.sequence | target.under.test | PBM binding z-score
AGAAAGAGGTTACCAAAGATCAGGGAAACGCTTG | THRa:RXRa (NR concentration 90 nM, RXRa partner concentration 90 nM) | 1.91
ATCGAAAGGGCGAAGGTGAGTATACCCACCCGAA | THRa:RXRa (NR concentration 90 nM, RXRa partner concentration 90 nM) | 0.3
AGAACGAGGGCACGCTTAGTTGATAGCAGAGTAG | THRa:RXRa (NR concentration 90 nM, RXRa partner concentration 90 nM) | 1.94
CAAACTAGGTCACCGCAAGGTCAAAGTCCGCATG | THRa:RXRa (NR concentration 90 nM, RXRa partner concentration 90 nM) | 4.68
GATACAGGGTCAGTTAGAGGCCAGAGTATGGAAA | THRa:RXRa (NR concentration 90 nM, RXRa partner concentration 90 nM) | 2.73
CCGACTGGGGCATAATGTTACCATAAGCCAGCCC | THRa:RXRa (NR concentration 90 nM, RXRa partner concentration 90 nM) | -0.493

---

Tested on: THRa homodimer (NR concentration 90 nM)
Experiment: PBM binding z-score (relative to random genomic background probes); higher = stronger binding; sequences stand for … in GC…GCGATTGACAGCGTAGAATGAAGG
// No strictly below 0.5 in PBM binding z-score; Yes otherwise

primary.sequence | class.label
GGAACGAGGGCAAGTTGATAGTAGAGTTTGATGG | No
GCTGCTAGGTCAACTGATTGTCAGCTAAAGCTCG | Yes
AGAACGAGGGCACCCTGAGTTGATAGCAGAGTAG | No
CGTCCAAGATCAAAGGTCAGTGAAGAGATGACGG | No
TCTTGTAGTTCAACAGGAGGTTAAGAAAGATCGA | No
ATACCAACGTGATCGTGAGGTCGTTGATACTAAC | Yes
CCTCGGAGGACGGAAGGTCAGAGCTGTCCGCTTT | No
TCCAGTAGGTTAGTCGGGGCATTCAGCCAACATA | No
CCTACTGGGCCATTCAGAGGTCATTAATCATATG | Yes
AATACAGGCTCACTAGGCCAGAGTAGGTACGAAT | No
TCTATTAGTTGATTAGCGCAACCGAAACAGCGGA | No

---

System: PPARa:RXRa (NR concentration 270 nM, RXRa partner concentration 90 nM)
Test: PBM binding z-score (relative to random genomic background probes); higher = stronger binding; sequences stand for … in GC…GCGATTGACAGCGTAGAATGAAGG
# maps each entry to its PBM binding z-score
assay.metric: PBM binding z-score

primary.sequence | measured.result
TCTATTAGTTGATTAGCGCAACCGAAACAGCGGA | 0.774
CGTCCAACGTCATAGGAGGTCAGTGAAGACAGAT | 2.09
GCTAGTTGGTCAGTAAAAGGTCACACATCGGTCG | 4.23
CCTGCTAGGGCAATGGTCAGCTAAAGCAGCTCGC | 0.614
AATACAGAGTCACTAGGCCAGAGTAGGTACGAAT | 0.626
TCTAGTTCGTCAAAGGTCACACACTCGAAATGCG | 5.99
CTCGAAATGTCGGTTGAGGTGAGTATACGGATAA | 0.0141
AATACAGGGTCATCGCAGGCCAGAGTACGCACAG | 5.93
GCTGCTAAGTCAACTGATGGTCAGCTAAAGCTCG | -0.555
AGAACGAGGGCCATGAGTTGATAGCACGGGTGGC | -0.163
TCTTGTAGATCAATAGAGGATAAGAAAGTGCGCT | 0.415
CCAGACAGGTGAAAGGGAACTCAGTCTGGTACGC | 1.63
CTAACTAGGTCAAAGGTCAAAGTCGAGCCAACCA | 7.74
AGAACGAGGGCAATGAGTTGACAGCACGGGTGGC | 1.24
TCTGCTAGGTCAGTTGGTCAGCTACCGAGCTGCC | 1.21
CGTCCAAGGTCAATGCTAGGTCAATGAAAGCATT | 5.09
GCTGCTAGGTCAACTGATGGTCAGCGAAAGCTCG | 3.84
TTACCAAGGTGAGCTGACGTCGTTGATCCAACTC | 0.149
CCGAGTAGGTTATGGGGCATGCAGGCAACGGTGA | 1.93
TATACAGGGTCAAAGGCCCGAGTACGAATGTCGA | 5.84
AGTCTAAGTTCACTAGGTAACGTAAGATTCAGCT | 3.63
ATCGAAAGGTCGACGAGGTGAGTATTCACCGTTT | 4.26
TTACCAAGGTGAGAGGTCGTTGATGCACGCCTTG | 3.59
GCTTACGTGTCAAAGGTTATAGCATGAATAGAAT | 5.34
CGTCCAAGGTCAGAGGGGTCAGTGAATGCCGAGT | 5.12
ATATGTAGGTTAGCTGGGTTCATTCAGACTAGGC | 3.76
